The measured values listed here are drawn from paper PMC10397247.

- test-system: T1, P9A-bN
- T1 chain: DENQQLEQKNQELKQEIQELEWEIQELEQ
- assay-protocol: two-hybrid library CCNG1;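 further: natural log of median RNA to DNA barcode read ratio; higher means stronger binding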
parameter-measured: interaction score
Output: the number by itself.

Example cases with answers are listed next.
binder	interaction score
DENQQLEQEIQELEQEIQELEWKNQELKQ [P11A-bN]	0.422
DKNQQLKQKIQELKQKIQELKWENQELEQ [P12A-bN]	-1.28

Ask | # query: interaction score of entry DKNQQLKQEIQELEQENQELEWKIQELKQ [P6A-bN]
Reply | 0.0031

Ask | Endpoint output: interaction score of DENQQLEQKIQELKQKNQELKWEIQELEQ [P5A-bN] . Value?
Reply | -1.14

Ask | Record request: interaction score value, item DEIQQLEQENQELEQENQELEWEIQELEQ [P1A-bN]
Reply | -2.46

Ask | Value lookup for interaction score; key = DEIQQLEQEIQELEQKNQELKWKNQELKQ [P3A-bN]
Reply | 0.0484
